Test: ACEA_AR_agonist_AUC_viability: ACEA Biosciences xCELLigence Real-Time Cell Analysis on Androgen Receptor Agonism for Viability (AID 2283775);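 as to AC50: viability read 80 hours after compound addition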
Protocol: ACEA_AR_agonist is a cell-based, single-readout assay that uses 22Rv1, a human prostate cancer cell line, with measurements taken at 80 hours after chemical dosing in a 384-well plate, although TO5 and TO6 (mc0.srcf) used a 96-well plate. Differences in plate size can be ignored given data normalization.ACEA_AR_80hr is one of two assay component(s) measured or calculated from the ACEA_AR assay. […]
Records with an inconclusive call do not appear. Activity calls are given as the source filed them. The calls were made as follows: active = hit-call score of the fitted dose curve at least 0.9, where 1 is the maximum; inconclusive = response in the unintended direction; inactive = score below 0.9. Peptide text beside a SMILES is read from it.
parameter: AC50

Please review the entries below; each comes with its answer.
INSERT INTO measurements (molecule, test_value) VALUES
  ('COC(=O)[C@H](Cc1ccccc1)NC(=O)[C@@H](N)CC(=O)O (H-Asp-Phe-OMe)', 'inactive'),
  ('CCCCCCCCCCCCCC(=O)OC(C)C', 'inactive'),
  ('CCCCNS(=O)(=O)c1ccccc1', 'inactive'),
  ('CCCCCCCCC(CO)CCCCCC (stereo not drawn)', 'inactive'),
  ('CCCCCCCCCCCCc1ccc(O)cc1', '16.6 µM (active)');

input: Query (molecule): CO[Si](C)(C)OC ; field requested: AC50
output: inactive

input: For the molecule shown here, CC12CCC(CC1)C(C)(C)O2 , give the reported AC50.
output: inactive

input: Look up AC50: CCCCCCCCCC[N+](C)(CCCCCCCCCC)CCC[Si](OC)(OC)OC
output: 5.04 µM (active)

input: Looking for the measured AC50 of C=C[C@@]1(C)CC(=O)[C@]2(O)[C@@]3(C)[C@@H](O)CCC(C)(C)[C@@H]3[C@H](O)[C@H](OC(C)=O)[C@@]2(C)O1 , can you help?
output: 6.78 µM (active)
